As shown below, each of these compounds has a reported GI50 value.
test system: SNB-78; experiment: NCI tumour cell line growth inhibition, 48 h
Activity calls are given as the source filed them. Rule as the data show it: active = GI50 up to about 1.1 µM and inactive = higher.
Measurement name: GI50

INSERT INTO results (compound, measurement_name, value_measured) VALUES
  ('COc1nc2nccc-2c2occn12', 'GI50', '> 100 µM (inactive)'),
  ('CCOc1ccc(/C=C/C(=O)c2sc(NNC(C)=O)nc2C)cc1', 'GI50', '> 100 µM (inactive)'),
  ('CCOC(=O)C1=C(O)C(=O)c2cc(OC)ccc2C1=O', 'GI50', '> 100 µM (inactive)'),
  ('CN1CCN(C)C12C=CC=CC21CC1', 'GI50', '> 100 µM (inactive)'),
  ('COc1ccc(/C(Cl)=C(\C=O)c2ccc(Br)cc2)cc1OC', 'GI50', '25.4 µM (inactive)'),
  ('NC(CCC(=O)NC(CSC(=O)N(O)c1ccccc1)C(=O)NCC(=O)O)C(=O)O (stereo unspecified)', 'GI50', '> 1000 µM (inactive)');

---

system: A498; experiment: NCI tumour cell line growth inhibition, 48 h
Calls of active or inactive are those of the source. Rule as the data show it: active = GI50 up to about 1.1 µM and inactive = higher.
Outcome codes: true for active, false for inactive

INSERT INTO measurements (molecule, subject_of_test, assigned_label) VALUES
  ('CC(C)C(C/C=C1/CC(CO)(COC(=O)C2CCCCC2)OC1=O)C(C)C (configuration not stated)', 'A498', 'false'),
  ('CCC1NCC(=O)c2c1[nH]c1ccccc21 (configuration not stated)', 'A498', 'false'),
  ('CCOC(=O)C1=CNC2=N[C@H]3CCCC[C@@H]3N2C1=O', 'A498', 'false'),
  ('O=C1C=CC(=O)c2c1cc([N+](=O)[O-])c1ccoc21', 'A498', 'false'),
  ('CCN(CC)CCNc1nc(N)c(C#N)c(C#N)c1C#N', 'A498', 'false'),
  ('CN(C)c1nc(N(C)C)nc(N(C)CN(C)c2nc(N(C)C)nc(N(C)C)n2)n1', 'A498', 'false'),
  ('CN(C)c1ccc(Cc2cc3c(O)ccc(O)c3cc(Cc3ccc(N(C)C)cc3)c2=O)cc1', 'A498', 'false'),
  ('C[N+](C)(C)CC1CCCC1=O (configuration not stated)', 'A498', 'false'),
  ('Cc1c2ccncc2c(C)c2c1[nH]c1ccc(Oc3ccccc3)cc12', 'A498', 'false'),
  ('O=C(O)CNCc1c2ccccc2[n+]([O-])c2ccccc12', 'A498', 'false'),
  ('O=C(O)/C=C/n1c2ccccc2c(=O)c2ccccc21', 'A498', 'false'),
  ('O=C(CSCC(=O)N/N=C\c1ccc(F)cc1F)N/N=C\c1ccc(F)cc1F', 'A498', 'false'),
  ('COC(=O)c1ccc(/C=N/c2ccc(S(N)(=O)=O)cc2)cc1', 'A498', 'false'),
  ('O=C(SC1=NCCN1)c1cccc2ccccc12', 'A498', 'false'),
  ('O=C1/C(=C/c2ccc3c(c2)OCO3)CCC1CN1CCOCC1 (configuration not stated)', 'A498', 'false'),
  ('Cc1cn(C2CC(CCCO)C(CO)O2)c(=O)[nH]c1=O (configuration not stated)', 'A498', 'false'),
  ('Cn1c(=O)c2[nH]c(N/N=C3/SCC(=O)N3Cc3ccccc3)nc2n(C)c1=O', 'A498', 'false'),
  ('CNC(=O)CC1NC(=O)c2csc(n2)-c2ccc(-c3nc(C4=NC(C(=O)N5CCCC5C(N)=O)CO4)cs3)nc2-c2csc(n2)-c2csc(n2)C(C(C)C)NC(=O)CNC(=O)c2csc(n2)C(C(C)C)NC(=O)c2nc1sc2C (configuration not stated)', 'A498', 'true'),
  ('Cc1cc2c(cc1C)OC(=O)CC2', 'A498', 'false'),
  ('COC1CC(COCc2ccccc2)CC(OC)O1 (configuration not stated)', 'A498', 'false'),
  ('COc1cc(NCC(C#N)C#N)ccc1/N=N/c1ccc([N+](=O)[O-])cc1', 'A498', 'false'),
  ('Cc1c(O)c(=O)ccn1CCO', 'A498', 'false');

---

tested on: HCT-15; test: NCI tumour cell line growth inhibition, 48 h
Measurement name: GI50 (µM)

INSERT INTO measurements (compound, subject_of_test, unit_tag, bound_operator, value_measured) VALUES
  ('CC(C)C(C/C=C1\CC(CO)(COC(=O)C2CCCCC2)OC1=O)C(C)C (stereo unspecified)', 'HCT-15', 'µM', '=', 21.7),
  ('COc1cc2c3c(c1OCc1ccccc1)NCCC3NCC2 (stereo unspecified)', 'HCT-15', 'µM', '>', 100),
  ('O=C(O)CNCc1c2ccccc2[n+]([O-])c2ccccc12', 'HCT-15', 'µM', '=', 30.8),
  ('O=C1CC2(C[C@@H]3CCCCCCCCC[C@@H](C3)C2)N1 (stereo partly specified)', 'HCT-15', 'µM', '=', 17.7),
  ('CCOC(=O)[C@H]1Nc2ccc(Cl)cc2[C@H]2CCC[C@@H]12', 'HCT-15', 'µM', '>', 100),
  ('Cc1cc(=O)oc2cc(OCC(O)COC(C)C)ccc12 (stereo unspecified)', 'HCT-15', 'µM', '>', 100);

---

tested on: Malme-3M; experiment: NCI tumour cell line growth inhibition, 48 h
Active and inactive are the calls of the source. Cut-off read from the data, not from the text of the source: active = GI50 up to about 1.1 µM and inactive = higher. Square brackets hold non-standard residues; d marks the D form. Peptide text beside a SMILES is read from it. * marks the point of attachment. NMeV = CN[C@H](C(=O)O)C(C)C; X28 = COc1ccc(CN*)c(OC)c1; Octanoyl = CCCCCCCC(=O)*; dNMeA = CN[C@H](C)C(=O)O
Measurement name: GI50

INSERT INTO assay_data (compound, value_measured) VALUES
  ('N/C(=C\c1ccc(OCc2ccccc2)c(OCc2ccccc2)c1[N+](=O)[O-])C(=O)O', '> 100 µM (inactive)'),
  ('O=C(CCc1ccc(O)c(O)c1)c1ccc(O)c(O)c1O', '28.4 µM (inactive)'),
  ('COc1ccc(NCc2cccc3c(=O)c4ccc(Cl)cc4oc23)cc1', '> 100 µM (inactive)'),
  ('Cc1c(C#N)c2nnn(-c3ccc([N+](=O)[O-])cc3)c(=O)n2c1-c1ccccc1', '14.7 µM (inactive)'),
  ('O=C(O)c1ccc(C2SCc3nc4ccccc4n32)cc1 (stereo not given)', '> 100 µM (inactive)'),
  ('O=C1CCCNn2c(nc3ncccc3c2=O)N1', '> 100 µM (inactive)'),
  ('O=C1OC(c2ccccc2)=N/C1=C\c1ccc(Br)cc1', '74.8 µM (inactive)'),
  ('CCOC(=O)C(=NN(C)c1ncccc1N)C(=O)OCC', '29.1 µM (inactive)'),
  ('CC(C)(C)c1cc(C(=O)/C=C/c2ccc3c(c2)CCO3)cc(C(C)(C)C)c1O', '> 100 µM (inactive)'),
  ('CC(C)(C)OC(=O)N1CCc2c(n(C/C=C/c3ccccc3)[nH]c2=O)C1', '> 75.2 µM (inactive)'),
  ('COC(=O)CNC(=O)CNC(=O)CSc1nnc(COc2ccc(Cl)cc2)n1-c1ccccc1', '18.7 µM (inactive)'),
  ('CC1OC(OC2CCCc3c(O)c4c(c(O)c32)C(=O)c2ccccc2C4=O)CC(N)C1O (stereo not given)', '1.82 µM (inactive)'),
  ('O=C1CC2(C[C@@H]3CCCCCCCCC[C@@H](C3)C2)N1 (stereo not given in full)', '11.8 µM (inactive)'),
  ('CC(N)C(=O)c1ccc(O)cc1 (stereo not given)', '> 100 µM (inactive)'),
  ('O=C(Nc1ccc(Cl)cc1)[C-](C(=O)c1ccc(Br)cc1)[n+]1cccc(-c2ccc(Cl)cc2)n1', '2.86 µM (inactive)'),
  ('CCOC(=O)C(Cl)(Cl)/S(=N\S(=O)(=O)c1ccccc1)NC(=O)c1ccccc1 (stereo not given)', '> 100 µM (inactive)'),
  ('O=C(c1cc(Cl)ccc1Cl)N1CCN(c2ccc(Cl)c(Cl)c2)CC1', '17.9 µM (inactive)'),
  ('N#Cc1c(C#N)c(-c2cccc([N+](=O)[O-])c2)n(-c2ccccc2)c1N', '> 100 µM (inactive)'),
  ('CCCCCCCC(=O)N[C@H](C(=O)N[C@H](C(=O)N(C)[C@H](C(=O)N1CCC[C@H]1C(=O)N(C)[C@H](C)C(=O)NCc1ccc(OC)cc1OC)C(C)C)C(C)C)C(C)C (Octanoyl-VV[NMeV]P[dNMeA]-X28)', '8.17 µM (inactive)'),
  ('NC(CC(=O)O)(Cc1ccccc1)C(=O)O (stereo not given)', '> 100 µM (inactive)');

---

tested on: PC-3; experiment: NCI tumour cell line growth inhibition, 48 h
The source made the active and inactive calls. Rule as the data show it: active = GI50 up to about 1.1 µM and inactive = higher.
Outcome codes: active, inactive

INSERT INTO assay_data (compound, assigned_label) VALUES
  ('Cc1ccc(/C=C2/N/C(=N\N=C/C(O)C(O)C(O)CO)NC2=O)cc1 (stereo not given)', 'inactive'),
  ('CC(=O)NNc1nc(C)c(C(/C=C/c2cccc([N+](=O)[O-])c2)=N/NC(=S)NN)s1', 'inactive'),
  ('CC(C)C(C/C=C1\CC(CO)(COC(=O)C2CCCCC2)OC1=O)C(C)C (stereo not given)', 'inactive'),
  ('COC(=O)CNC(=O)CNC(=O)CSc1nnc(COc2ccc(Cl)cc2)n1-c1ccccc1', 'inactive'),
  ('Oc1cc(Br)cc2cc(Cl)cnc12', 'inactive'),
  ('CC(C)CC1[C@@H](OCc2ccccc2)COS(=O)N1Cc1ccccc1 (stereo not given in full)', 'inactive'),
  ('COC(=O)Nc1nc2cc(C(=O)c3ccc[nH]3)ccc2[nH]1', 'active'),
  ('CN1CN(c2ccccc2)C2(CCN(Cc3csc4ccccc34)CC2)C1=O', 'inactive'),
  ('COC(=O)c1cnn2c1ccc1ccccc12', 'inactive'),
  ('CC(=O)NC1C(OCc2ccccc2)OC(CO)C(O)C1OCC(=O)NC(C)C(=O)NC(CCC(=O)Nc1ccc2c(c1)CN1C(=O)c3ccccc3C1=N2)C(N)=O (stereo not given)', 'inactive');
